# TARGET OF ASSAY: Progesterone receptor (Homo sapiens, UniProt P06401)
# Sequence (P06401 whole entry): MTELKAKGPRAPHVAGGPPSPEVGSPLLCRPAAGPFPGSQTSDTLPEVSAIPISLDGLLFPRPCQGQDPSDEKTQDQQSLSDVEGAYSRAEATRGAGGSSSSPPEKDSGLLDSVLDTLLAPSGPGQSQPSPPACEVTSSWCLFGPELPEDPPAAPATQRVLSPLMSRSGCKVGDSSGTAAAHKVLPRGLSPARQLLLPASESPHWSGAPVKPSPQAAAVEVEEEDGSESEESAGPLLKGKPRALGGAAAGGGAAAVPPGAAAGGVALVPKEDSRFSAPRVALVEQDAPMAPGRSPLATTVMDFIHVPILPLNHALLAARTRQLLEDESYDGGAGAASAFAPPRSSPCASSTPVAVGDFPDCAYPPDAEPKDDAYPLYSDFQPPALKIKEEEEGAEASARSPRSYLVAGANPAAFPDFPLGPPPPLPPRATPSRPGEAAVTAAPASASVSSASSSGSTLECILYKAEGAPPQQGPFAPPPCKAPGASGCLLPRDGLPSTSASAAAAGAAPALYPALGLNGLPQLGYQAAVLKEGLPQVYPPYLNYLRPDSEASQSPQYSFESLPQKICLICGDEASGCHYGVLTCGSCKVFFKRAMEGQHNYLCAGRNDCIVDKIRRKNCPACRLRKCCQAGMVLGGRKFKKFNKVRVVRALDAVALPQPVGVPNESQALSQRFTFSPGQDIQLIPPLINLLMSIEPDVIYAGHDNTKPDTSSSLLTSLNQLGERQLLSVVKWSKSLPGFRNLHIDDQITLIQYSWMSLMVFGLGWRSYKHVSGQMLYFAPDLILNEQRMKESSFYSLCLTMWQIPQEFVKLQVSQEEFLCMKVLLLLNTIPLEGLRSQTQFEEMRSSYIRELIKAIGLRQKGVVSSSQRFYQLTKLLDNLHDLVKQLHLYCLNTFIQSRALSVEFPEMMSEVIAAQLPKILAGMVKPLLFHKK
# Format: functional
METRIC: AC50

query: Requested read-out AC50, target or system Progesterone receptor (Homo sapiens, UniProt P06401), entry CCC1(c2ccccc2)C(=O)NCNC1=O [PRIMIDONE]
result: > 10 µM

query: Can you check CN(C)[C@@H]1C(O)=C(C(=O)NCN2CCCC2)C(=O)[C@@]2(O)C(O)=C3C(=O)c4c(O)cccc4[C@@](C)(O)[C@H]3C[C@@H]12 [ROLITETRACYCLINE] next?
result: > 30 µM

query: Can you check c1cnc2cc3c(cc2n1)[C@@H]1CNC[C@H]3C1 [VARENICLINE] next?
result: > 30 µM

query: Can you check CCN(CC)CCn1c(=O)c(Cc2ccc(OC)cc2)nc2ccccc21 [CAROVERINE] next?
result: > 30 µM

---

Measured AC50 on Androgen receptor (Rattus norvegicus) follows.
Sequence (P15207 whole entry S389L): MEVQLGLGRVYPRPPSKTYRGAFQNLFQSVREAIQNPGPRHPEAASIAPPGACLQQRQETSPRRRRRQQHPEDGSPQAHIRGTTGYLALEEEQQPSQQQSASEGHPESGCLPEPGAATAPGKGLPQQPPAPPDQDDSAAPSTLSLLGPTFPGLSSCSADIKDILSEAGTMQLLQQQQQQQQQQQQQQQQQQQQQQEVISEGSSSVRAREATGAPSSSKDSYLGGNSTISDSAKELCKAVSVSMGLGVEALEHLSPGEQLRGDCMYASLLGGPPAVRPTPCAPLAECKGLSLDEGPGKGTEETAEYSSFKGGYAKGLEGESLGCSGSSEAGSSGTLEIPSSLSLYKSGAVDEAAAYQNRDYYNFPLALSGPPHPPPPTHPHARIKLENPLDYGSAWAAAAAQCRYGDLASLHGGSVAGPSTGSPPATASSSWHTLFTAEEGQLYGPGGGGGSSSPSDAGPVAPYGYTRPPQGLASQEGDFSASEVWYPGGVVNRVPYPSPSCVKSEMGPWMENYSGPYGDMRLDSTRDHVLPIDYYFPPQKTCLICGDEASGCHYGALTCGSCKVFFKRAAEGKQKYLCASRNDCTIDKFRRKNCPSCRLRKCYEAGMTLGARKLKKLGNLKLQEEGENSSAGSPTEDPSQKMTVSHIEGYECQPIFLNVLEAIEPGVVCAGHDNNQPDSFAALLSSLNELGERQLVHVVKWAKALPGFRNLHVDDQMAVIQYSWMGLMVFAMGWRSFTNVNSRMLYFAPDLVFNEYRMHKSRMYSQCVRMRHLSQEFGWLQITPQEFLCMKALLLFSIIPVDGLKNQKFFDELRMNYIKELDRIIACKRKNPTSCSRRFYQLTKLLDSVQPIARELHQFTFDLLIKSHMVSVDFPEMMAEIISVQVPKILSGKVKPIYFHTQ

query: Requested read-out AC50, target or system Androgen receptor (Rattus norvegicus), entry C[C@@H](Cc1ccccc1)N(C)Cc1ccccc1 [BENZPHETAMINE]; also: assay procedure not described here
result: > 10 µM

query: Can you check O=C1CN=C(c2ccccc2Cl)c2cc([N+](=O)[O-])ccc2N1 [CLONAZEPAM] next?
result: > 30 µM

query: Can you check CC(C)(N)Cc1ccccc1 [PHENTERMINE] next?
result: > 30 µM

query: Can you check CN1C(=O)CN=C(c2ccccc2F)c2cc([N+](=O)[O-])ccc21 [FLUNITRAZEPAM] next?
result: > 30 µM

query: Can you check OCC(O)COc1ccc(Cl)cc1 (configuration not stated) next?
result: > 10 µM

query: Can you check Cc1ccc(-c2ncc(Cl)cc2-c2ccc(S(C)(=O)=O)cc2)cn1 [ETORICOXIB] next?
result: > 30 µM

query: Can you check CCC(=O)[C@@]1(C)[C@H](C)C[C@H]2[C@@H]3CCC4=CC(=O)C=C[C@]4(C)[C@H]3[C@@H](O)C[C@@]21C [RIMEXOLONE] next?
result: > 30 µM

---

Task for the reader: assign each of the following molecules its reported AC50.
# TARGET OF ASSAY: Glucocorticoid receptor (Homo sapiens, UniProt P04150); also: assay procedure not described here
# Sequence (P04150 whole entry): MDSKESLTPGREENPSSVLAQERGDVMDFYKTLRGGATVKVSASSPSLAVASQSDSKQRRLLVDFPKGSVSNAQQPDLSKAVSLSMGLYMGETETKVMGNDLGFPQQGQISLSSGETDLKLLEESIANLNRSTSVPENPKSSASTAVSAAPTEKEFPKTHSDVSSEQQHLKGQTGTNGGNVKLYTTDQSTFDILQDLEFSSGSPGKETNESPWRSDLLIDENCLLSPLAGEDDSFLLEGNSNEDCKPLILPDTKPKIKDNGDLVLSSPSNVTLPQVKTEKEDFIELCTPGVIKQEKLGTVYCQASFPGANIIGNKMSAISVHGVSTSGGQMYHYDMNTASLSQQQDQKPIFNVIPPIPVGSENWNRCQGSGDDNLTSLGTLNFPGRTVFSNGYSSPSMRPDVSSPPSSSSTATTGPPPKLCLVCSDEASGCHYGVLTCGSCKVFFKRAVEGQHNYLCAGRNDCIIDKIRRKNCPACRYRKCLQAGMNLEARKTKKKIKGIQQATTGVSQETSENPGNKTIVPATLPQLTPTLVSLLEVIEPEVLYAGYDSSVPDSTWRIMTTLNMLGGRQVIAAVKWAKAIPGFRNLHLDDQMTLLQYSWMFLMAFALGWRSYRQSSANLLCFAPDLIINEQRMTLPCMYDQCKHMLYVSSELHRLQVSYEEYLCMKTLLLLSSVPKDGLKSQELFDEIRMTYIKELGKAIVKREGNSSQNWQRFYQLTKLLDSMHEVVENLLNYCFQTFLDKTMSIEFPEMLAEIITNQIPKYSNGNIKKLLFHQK

query: I have this molecule here, CN(Cc1ccc(C(C)(C)C)cc1)Cc1cccc2ccccc12 , and I need its recorded AC50.
result: > 30 µM

query: Can you check CC(=O)SCC(Cc1ccccc1)C(=O)NCC(=O)OCc1ccccc1 (stereo unspecified) next?
result: > 30 µM

query: Can you check N=C(N)NC(=O)c1nc(Cl)c(N)nc1N [AMILORIDE] next?
result: > 30 µM

query: Can you check CCCCC[C@H](O)CC[C@@H]1[C@H]2Cc3cccc(OCC(=O)O)c3C[C@H]2C[C@H]1O next?
result: > 30 µM

query: Can you check CC(=O)Oc1cccc2c1C(=O)c1c(OC(C)=O)cc(C(=O)O)cc1C2=O next?
result: > 30 µM

query: Can you check C[C@H](CS)C(=O)N1CCC[C@H]1C(=O)O next?
result: > 30 µM

---

Measured AC50 on Progesterone receptor (Homo sapiens, UniProt P06401) follows.

query: I have this molecule here, CC1=C(CC(=O)O)c2cc(F)ccc2/C1=C\c1ccc([S+](C)[O-])cc1 (stereo not given) , and I need its recorded AC50.
result: > 30 µM

query: Can you check CCOC(=O)C1=C(C)NC(C)=C(C(=O)OC)C1c1cccc(Cl)c1Cl (stereo not given) [FELODIPINE] next?
result: 2.6 µM

query: Can you check N=C(N)NC(=O)c1nc(Cl)c(N)nc1N [AMILORIDE] next?
result: > 30 µM

query: Can you check CCOC(=O)[C@H](CCc1ccccc1)N[C@@H](C)C(=O)N1Cc2ccccc2C[C@H]1C(=O)O next?
result: > 30 µM

query: Can you check C[C@H](CS)C(=O)N1CCC[C@H]1C(=O)O [CAPTOPRIL] next?
result: > 30 µM

query: Can you check NCC1(CC(=O)O)CCCCC1 [GABAPENTIN] next?
result: > 30 µM

query: Can you check O=C1CN=C(c2ccccc2Cl)c2cc([N+](=O)[O-])ccc2N1 [CLONAZEPAM] next?
result: > 30 µM

query: Can you check Cc1ccc(-c2ncc(Cl)cc2-c2ccc(S(C)(=O)=O)cc2)cn1 [ETORICOXIB] next?
result: > 30 µM

query: Can you check CCN(CC)C(C)C(=O)c1ccccc1 (stereo not given) [DIETHYLPROPION] next?
result: 0.22 µM

query: Can you check N=C(N)NC(=O)Cc1c(Cl)cccc1Cl [GUANFACINE] next?
result: > 30 µM

query: Can you check Nc1cc(N2CCCCC2)nc(N)[n+]1[O-] [MINOXIDIL] next?
result: > 30 µM

query: Can you check Cc1cnc(Nc2ccc(OCCN3CCCC3)cc2)nc1Nc1cccc(S(=O)(=O)NC(C)(C)C)c1 [FEDRATINIB] next?
result: > 30 µM

query: Can you check C[C@]12CCC(=O)C=C1CC[C@H]1[C@@H]3CC[C@](O)(C(=O)CO)[C@@]3(C)C[C@H](O)[C@@]12F [FLUDROCORTISONE] next?
result: > 30 µM

query: Can you check O=C(O)COC(=O)Cc1ccccc1Nc1c(Cl)cccc1Cl [ACECLOFENAC] next?
result: > 30 µM

query: Can you check CN(C)CCCC1(c2ccc(F)cc2)OCc2cc(C#N)ccc21 (stereo not given) [CITALOPRAM] next?
result: > 30 µM

query: Can you check CN1C(=O)CN=C(c2ccccc2F)c2cc([N+](=O)[O-])ccc21 [FLUNITRAZEPAM] next?
result: > 10 µM

query: Can you check Oc1cc(O)c2c(c1)O[C@H](c1ccc(O)c(O)c1)[C@@H](O)C2 [CIANIDANOL] next?
result: > 30 µM

query: Can you check CC(NC(C)(C)C)C(=O)c1cccc(Cl)c1 (stereo not given) [BUPROPION] next?
result: > 30 µM

query: Can you check CN1C2CCCC1CC(NC(=O)c1nn(C)c3ccccc13)C2 (stereo not given) [GRANISETRON] next?
result: > 30 µM

query: Can you check CC1NCCOC1c1ccccc1 (stereo not given) [PHENMETRAZINE] next?
result: > 30 µM

---

Task for the reader: assign each of the following compounds its reported AC50.
# TARGET OF ASSAY: Amine oxidase [flavin-containing] A (Homo sapiens); also: assay procedure not described here
# Sequence (P21397 whole entry): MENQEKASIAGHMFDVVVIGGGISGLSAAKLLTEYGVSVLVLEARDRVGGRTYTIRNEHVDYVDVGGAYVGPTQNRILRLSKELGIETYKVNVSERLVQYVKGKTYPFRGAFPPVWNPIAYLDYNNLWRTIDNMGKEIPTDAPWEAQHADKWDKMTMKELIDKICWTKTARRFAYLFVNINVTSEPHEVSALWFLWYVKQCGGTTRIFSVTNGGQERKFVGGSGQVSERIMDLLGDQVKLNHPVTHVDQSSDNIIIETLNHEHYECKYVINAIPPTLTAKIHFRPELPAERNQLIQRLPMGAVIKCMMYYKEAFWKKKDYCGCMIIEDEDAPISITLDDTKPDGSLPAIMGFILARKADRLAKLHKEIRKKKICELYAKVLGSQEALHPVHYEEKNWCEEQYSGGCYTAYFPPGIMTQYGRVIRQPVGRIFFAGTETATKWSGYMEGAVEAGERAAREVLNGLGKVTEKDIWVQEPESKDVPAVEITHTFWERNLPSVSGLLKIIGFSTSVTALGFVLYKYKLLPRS
# Type: functional

query: I have this compound here, CCCCCCOC(=O)NC(=N)c1ccc(NCc2nc3cc(C(=O)N(CCC(=O)OCC)c4ccccn4)ccc3n2C)cc1 [DABIGATRAN ETEXILATE] , and I need its recorded AC50.
result: > 30 µM

query: Can you check CN(C)CCOC(=O)C(c1ccccc1)C1(O)CCCC1 (centres undefined) [CYCLOPENTOLATE] next?
result: > 30 µM

query: Can you check N[C@@H](Cc1cc(I)c(Oc2cc(I)c(O)c(I)c2)c(I)c1)C(=O)O [LEVOTHYROXINE] next?
result: > 30 µM

query: Can you check C[C@@H](O)[C@H]1C(=O)N2C(C(=O)O)=C(SCCN=CN)C[C@H]12 [IMIPENEM ANHYDROUS] next?
result: > 300 µM
